Target: T1, P8bH1
T1 chain: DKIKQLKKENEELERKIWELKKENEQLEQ
Test: two-hybrid library CCNG1;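 further: natural log of median RNA to DNA barcode read ratio; higher means stronger binding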
Reported metric: interaction score

(1) DKNKQLKKEIEELERENWELEKKIEQLKQ [P6bH1]
(2) DENKQLEKEIEELEREIWELEKKNEQLKQ [P11bH1]
Q. Record comparison, field interaction score: mark the lower of 1 and 2 . Output the label that corresponds to your choice.
A. 2

(P) DEIKQLEKENEELERENWELEKEIEQLEQ [P1bH1]
(Q) DKIKQLKKKNEELKRKNWELKKKIEQLKQ [P2bH1]
Q. interaction score comparison. Which is larger, P or Q ? Output the label that corresponds to your choice.
A. Q
(Q: -0.331, P: -0.757)
